From: patent US12458025B2

- System: Pseudomonas syringae (Gram negative)
- ASSAY PROTOCOL: Bacterial culture growth inhibition, cell density (OD: 600)
- Format: cell-based
- SETUP CONDITIONS: 50 μM, 24 h, N=4
VALUE KIND: growth inhibition significance vs untreated (asterisks)

[[record]]
compound = "CN(C)CCOC(c1ccc(Cl)cc1)c1ccccn1.O=C(O)/C=C\\C(=O)O (stereo not shown) [Carbinoxamine maleate]"
meas_value = "* (effective, *P≤0.05)"

[[record]]
compound = "CCCNC(=O)NS(=O)(=O)c1ccc(Cl)cc1 [Chlorpropamide]"
meas_value = "* (effective, *P≤0.05)"

[[record]]
compound = "Cl.NCCCCCC(=O)O [Aminocaproic acid hydrochloride, 6-aminohexanoic acid]"
meas_value = "* (effective, *P≤0.05)"


---

- System: Clavibacter michiganensis (Gram positive)
- ASSAY PROTOCOL: Bacterial culture growth inhibition, cell density (OD: 600)
- Assay type: cell-based
- SETUP CONDITIONS: 5 μM, 24 h; untreated 1.61
VALUE KIND: cell density (OD: 600)

[[record]]
compound = "CN(C)CCOC(=O)C(c1ccccc1)C1(O)CCCC1.Cl (stereo not drawn) [Cyclopentolate hydrochloride]"
tested_on = "Clavibacter michiganensis (Gram positive)"
value_kind = "cell density (OD: 600)"
meas_value = 1.64

[[record]]
compound = "Cl.NCCCCCC(=O)O [Aminocaproic acid hydrochloride, 6-aminohexanoic acid]"
tested_on = "Clavibacter michiganensis (Gram positive)"
value_kind = "cell density (OD: 600)"
meas_value = 1.64

[[record]]
compound = "CCn1nc(C(=O)O)c(=O)c2cc3c(cc21)OCO3 [Cinoxacin]"
tested_on = "Clavibacter michiganensis (Gram positive)"
value_kind = "cell density (OD: 600)"
meas_value = 1.63

